# Tested on: femoral artery
# Run Description: Vasodilator activity, femoral artery (technique of perfused paw)
# Type: in vivo
# Parameters: key: O: no action; +: slight activity; ++: effect equal to half the effect of papaverine; +++: effect equal to that of papaverine; ++++: effect higher than that of papaverine
# Test Settings: intra-arterial, 30 mg/kg, anaesthetized dog, vs papaverine at same dose
Parameter Measured: VASODILATOR ACTIVITY

| Compound | Parameter Measured | Value Observed |
| --- | --- | --- |
| Cc1ccc(CCNC(C)C(O)c2ccc3c(c2)CC(C)S3)cc1 (stereo not shown) | VASODILATOR ACTIVITY | +++ |
| CC(NCCOc1ccc2ccccc2c1)C(O)c1ccc2c(c1)CCCS2 (stereo not shown) | VASODILATOR ACTIVITY | +++ |
| CC(NCCCC(=O)c1ccc(F)cc1)C(O)c1ccc2c(c1)CCC2 (stereo not shown) | VASODILATOR ACTIVITY | ++ |
| CC(NCCCC(=O)c1ccc(F)cc1)C(O)c1ccc2c(c1)CCCS2 (stereo not shown) | VASODILATOR ACTIVITY | ++ |
| CC(NCCOc1ccccc1)C(O)c1ccc2c(c1)CCC2 (stereo not shown) | VASODILATOR ACTIVITY | ++++ |
| CCCCSCCCNC(C)C(O)c1ccc2c(c1)SCCO2 (stereo not shown) | VASODILATOR ACTIVITY | ++ |
| CC(NCCCCc1ccccc1)C(O)c1ccc2c(c1)SCCS2 (stereo not shown) | VASODILATOR ACTIVITY | ++++ |
| CC(C(O)c1ccc2c(c1)CCCS2)N1CCC(c2ccccc2)CC1 (stereo not shown) | VASODILATOR ACTIVITY | +++ |
| CC(NCCOc1ccccc1)C(O)c1ccc2c(c1)CCS2 (stereo not shown) | VASODILATOR ACTIVITY | ++ ++ |

Consider the additional compound presented here.
Exercise: Request - read-out VASODILATOR ACTIVITY | tested on femoral artery | compound CC1Cc2cc(C(O)C(C)NCCOc3ccccc3)ccc2O1 (stereo not shown)
Key: +++
